Source listed as ChEMBL document CHEMBL1141818.

Examples of molecules with documented IC50 follow.
Experiment: Inhibition of NADH oxidase
Write the answer as a number in nM, unit excluded.

smiles_text=CCCCCCCCCC[C@H](O)[C@@H]1CC[C@H]([C@H]2CC[C@@H]([C@H](O)CCCCCCCC[C@@H](O)CC3=C[C@H](C)OC3=O)O2)O1 measurement_kind=IC50 observed_value=0.33

GET /values?readout=IC50&item= CCCCCCCCCC[C@@H](O)[C@@H]1CC[C@H]([C@H]2CC[C@@H]([C@@H](O)CCCCCCCCCCC3=C[C@H](C)OC3=O)O2)O1
0.3

---

System: MCF7
Test: Cytotoxicity against human MCF7 cells
Assay type: functional
measurement kind: ED50

molecule="CCCCC[C@H](O)[C@H](O)CCC[C@H](O)[C@H]1CC[C@H]([C@H]2CC[C@H]([C@H](O)CCCCCCCCCCCCC3=C[C@H](C)OC3=O)O2)O1 (stereo in doubt; 91) [PURPUREDIOLIN]" observed_value="2.5 ×10⁻⁴ ug/ml"
molecule="CCCCCCCCCCCC[C@@H](O)[C@H]1CC[C@H]([C@H]2CCC[C@@H]([C@@H](O)CCCCCCC[C@@H](O)CC3=C[C@H](C)OC3=O)O2)O1 [MUCONIN]" observed_value="2.4 ×10⁻⁴ ug/ml"
molecule="CCCCCCCCCCCC[C@@H](O)[C@H]1CC[C@H]([C@H](O)CCCC[C@H](O)CCCCCCC[C@@H](O)CC2=C[C@H](C)OC2=O)O1 [ANNOGLACIN B]" observed_value="6.2 ×10⁻⁴ ug/ml"
molecule="CCCCCCCCCCCCCC/C=C\\[C@@H](O)C[C@H](O)[C@@H]1CC[C@@H](CCCCC[C@@H](O)CC2=C[C@H](C)OC2=O)O1 [GONIOTRIONIN]" observed_value="5.3 ×10⁻⁶ ug/ml"

We now examine a further molecule.
I'm curious: which ED50 was measured for CCCCCCCCCCCCC(=O)C[C@@H]1C[C@@H](O)[C@@H](CC[C@H](O)[C@@H]2CC[C@@H](CCCCC[C@@H](O)CC3=C[C@H](C)OC3=O)O2)O1 [GONIOTRIOCIN] tested on MCF7?
3.3 ×10⁻⁵ ug/ml
